- ASSAYED_SYSTEM: Tyrosyl-tRNA synthetase, putative (Trypanosoma cruzi (strain CL Brener)) (UniProt Q4DSP6)
- Sequence (whole entry): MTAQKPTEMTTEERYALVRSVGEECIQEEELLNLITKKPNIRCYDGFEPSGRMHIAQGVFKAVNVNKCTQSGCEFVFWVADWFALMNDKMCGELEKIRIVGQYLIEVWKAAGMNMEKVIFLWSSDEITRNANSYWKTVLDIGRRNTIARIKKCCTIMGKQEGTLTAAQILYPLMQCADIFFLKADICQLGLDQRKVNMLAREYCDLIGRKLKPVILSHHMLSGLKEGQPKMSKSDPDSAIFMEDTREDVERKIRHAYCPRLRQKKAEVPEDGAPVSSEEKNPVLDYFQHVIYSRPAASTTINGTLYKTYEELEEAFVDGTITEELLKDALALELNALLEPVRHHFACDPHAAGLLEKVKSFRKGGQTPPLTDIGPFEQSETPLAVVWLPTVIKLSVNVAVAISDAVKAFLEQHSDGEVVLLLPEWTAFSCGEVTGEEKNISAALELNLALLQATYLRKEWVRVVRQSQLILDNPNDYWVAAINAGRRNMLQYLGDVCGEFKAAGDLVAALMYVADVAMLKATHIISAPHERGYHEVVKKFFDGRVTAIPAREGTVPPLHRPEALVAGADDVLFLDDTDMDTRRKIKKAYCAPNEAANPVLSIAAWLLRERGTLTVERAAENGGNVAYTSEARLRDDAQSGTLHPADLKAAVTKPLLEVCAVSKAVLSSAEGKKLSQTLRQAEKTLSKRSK
- TEST_NAME: Trypanosoma cruzi tyrosyl tRNA synthetase (TcYRS) _High Tyrosine SOP
- Assay type: functional
- Parameters: scale not given: in the data most compounds retested in dose-response had high values
- CONDITION_SET: 30 µM
MEASUREMENT_LABEL: Percent Effect (%)
Express your answer in %, writing the number without its unit.

Solved cases (6 shown):
[
  {
    "MOLECULE": "CN(C)S(=O)(=O)N1CCCC(c2cccc(Cc3ccccc3)n2)C1 (configuration not stated)",
    "REPORTED": -5.29
  },
  {
    "MOLECULE": "Cc1nccn1-c1cccc(C2CCCN2S(=O)(=O)c2cn(C)cn2)n1 (configuration not stated)",
    "REPORTED": 0
  },
  {
    "MOLECULE": "FC(F)(F)Cn1ccnc1CN1CCCC1c1noc(C2CC2)n1 (configuration not stated)",
    "REPORTED": 4.74
  },
  {
    "MOLECULE": "O=C(NCC1CCSCC1)N(CCCO)C1CCc2ccccc21 (configuration not stated)",
    "REPORTED": -0.526
  },
  {
    "MOLECULE": "COCCN1CCCN(C(=O)NC(C)Cn2ccnc2)CC1 (configuration not stated)",
    "REPORTED": 0
  },
  {
    "MOLECULE": "COC1CCCN(Cc2nc(Cc3ccccc3F)no2)C1 (configuration not stated)",
    "REPORTED": 5.85
  }
]

Exam item: // returns reported Percent Effect for input "Cc1ccc(C(=O)N2C[C@H]3CCC[C@@]3(COCc3cccnc3)C2)s1"
Marked response: 5.79

Exam item: // returns reported Percent Effect for input "CN(C)C[C@@H]1C[C@@H]2CN(C(=O)c3ccoc3)CC[C@@H]2N1CC1CC1"
Marked response: -4.83

Exam item: // returns reported Percent Effect for input "COc1cc(CNCc2ccc(NC(=O)NC(C)C)cc2)cc(OC)c1"
Marked response: 8.82

Exam item: // returns reported Percent Effect for input Cc1cccc(-c2noc(CN3CCCC3Cn3cccn3)n2)c1 (configuration not stated)
Marked response: 1.58

Exam item: // returns reported Percent Effect for input Cc1cnn(CC2CCCN2C(=O)c2cc(Cl)ccc2F)c1 (configuration not stated)
Marked response: -1.96

Exam item: // returns reported Percent Effect for input Cc1cnn(CC2CCCN2CC(=O)Nc2cc(C(C)(C)C)no2)c1 (configuration not stated)
Marked response: 7.84

Exam item: // returns reported Percent Effect for input Cc1nc(C)n(CC2CCCN2Cc2nc3ccccc3nc2C)n1 (configuration not stated)
Marked response: 5.79

Exam item: // returns reported Percent Effect for input Cc1cc(NC(=O)NCC2CCOC2)no1 (configuration not stated)
Marked response: 4.74

Exam item: // returns reported Percent Effect for input COc1cccc(COCC(=O)N2CCCC(n3ccnc3C)C2)c1 (configuration not stated)
Marked response: -3.35

Exam item: // returns reported Percent Effect for input "Cc1ccccc1-c1cncc(C2CCN(C(C)C)CC2)n1"
Marked response: 7.41

Exam item: // returns reported Percent Effect for input Cc1occc1CNC(=O)N(CCCO)C1CCc2ccccc21 (configuration not stated)
Marked response: 2.63
